Molecular target: 5-hydroxytryptamine receptor 2A (Homo sapiens) (UniProt P28223)
Sequence (P28223 whole entry, looked up): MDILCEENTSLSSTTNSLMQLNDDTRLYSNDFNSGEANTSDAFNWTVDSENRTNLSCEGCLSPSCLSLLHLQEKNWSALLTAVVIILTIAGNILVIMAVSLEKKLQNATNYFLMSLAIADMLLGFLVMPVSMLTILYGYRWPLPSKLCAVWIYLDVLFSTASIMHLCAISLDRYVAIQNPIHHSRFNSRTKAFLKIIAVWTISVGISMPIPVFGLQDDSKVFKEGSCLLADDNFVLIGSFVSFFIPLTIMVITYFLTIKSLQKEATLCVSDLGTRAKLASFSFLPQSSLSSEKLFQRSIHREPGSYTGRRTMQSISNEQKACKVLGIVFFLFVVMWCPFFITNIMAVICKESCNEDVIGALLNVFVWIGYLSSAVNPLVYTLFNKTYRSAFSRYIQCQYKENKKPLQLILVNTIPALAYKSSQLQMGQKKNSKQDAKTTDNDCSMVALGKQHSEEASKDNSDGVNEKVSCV
Assay: 5-hydroxytryptamine receptor 2A (HTR2A) small molecule agonists, cell-based qHTS assay (AID 1963587); further: nearly all actives have a fitted effect of over 30% in size
Details: HTR2A-CHO cells, calcium flux fluorescence, agonist mode; series mostly up to 76.8 µM
Inconclusive results are not listed. The source made the active and inactive calls. The call rests on the fitted dose curve.
Use one of these outcomes when replying: Yes = active, No = inactive

Below, 6 molecules whose answers are already recorded.
CC(C)(C#N)N=NC(C)(C)C#N    No
O=C1C(Cl)=C(Cl)C(=O)C(Cl)=C1Cl    No
CC(Cl)(Cl)C(=O)O    No
ClC(Cl)(Cl)C(Cl)(Cl)Cl    No
CC12CC1(C)C(=O)N(c1cc(Cl)cc(Cl)c1)C2=O (stereo not given)    No
C[N+](C)(C)Cc1ccccc1    No

*Q* Hi, do you know how C=CC=O came out in this test?
*A* No

*Q* Hi, do you know how O=C(O)c1ccccn1 came out in this test?
*A* No

*Q* Hi, do you know how CN(N=O)c1ccccc1 came out in this test?
*A* No

*Q* Hi, do you know how O=C([O-])c1ccccn1.O=C([O-])c1ccccn1.O=C([O-])c1ccccn1.[Cr+3] came out in this test?
*A* No

*Q* Hi, do you know how CCCCCCCCCCOC(=O)c1ccccc1C(=O)OCCCCCCCCCC came out in this test?
*A* No
